# ASSAY_OVERVIEW: HepG2 cytotoxicity, primary screen, cytotoxicity control for P. falciparum antimalarial project, cell-based, ATP luminescence (AID 2303);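 further: 0% = DMSO wells and 100% = digitonin-killed cells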
# CONDITION_DESCRIPTION: HepG2 viability, 24-48 h, at 10 µM, active compounds read high
ENDPOINT_LABEL: inhibition (%)

* C=CCOC(=O)N1CCC(CNCc2ccc(-c3cccc(-c4nc5ccc(F)cc5[nH]4)c3)cc2)C1 (stereo not given) | 26
* Cc1cc(C)cc(OCC(O)CN(Cc2cc(Cl)cc(Cl)c2)C(=O)Nc2ccc(Cl)cc2)c1 (stereo not given) | -9
* COc1cc(C(C)C)ccc1N1CCN(CCCCNC(=O)c2ccc(NC(=O)c3ccc(Cl)cc3)cc2)CC1 | 25
* O=[N+]([O-])c1cccc(-c2ccc(C=NNc3cc(N4CCCC4)nc(N4CCCC4)n3)o2)c1 | -6
* CN(Cc1ccccc1)C(=O)CCNS(=O)(=O)c1cc(Br)cnc1N | -5
* COc1ccc(C2(CNCC(O)c3cccc([N+](=O)[O-])c3)CCCC2)cc1OC (stereo not given) | 10
* CN(C)Cc1cc(Nc2ccnc3cc(Cl)ccc23)ccc1O | 36
* CCOC(=O)C1=C(C)N=c2sc(=Cc3ccccc3O)c(=O)n2C1c1ccc(OC)c2ccccc12 (stereo not given) | -6
* COc1ccc(CCNC(=O)c2cc3c(=O)n4cccc(C)c4nc3n(C)c2=N)cc1 | 22
* CCc1nc2nc(C)cc(Nc3ccc(F)c(Cl)c3)n2n1 | 2

---

# TARGET_ENTITY: Calcium-dependent protein kinase 4 (Plasmodium falciparum (isolate 3D7)) (UniProt Q8IBS5)
# Sequence (Q8IBS5 whole entry, looked up): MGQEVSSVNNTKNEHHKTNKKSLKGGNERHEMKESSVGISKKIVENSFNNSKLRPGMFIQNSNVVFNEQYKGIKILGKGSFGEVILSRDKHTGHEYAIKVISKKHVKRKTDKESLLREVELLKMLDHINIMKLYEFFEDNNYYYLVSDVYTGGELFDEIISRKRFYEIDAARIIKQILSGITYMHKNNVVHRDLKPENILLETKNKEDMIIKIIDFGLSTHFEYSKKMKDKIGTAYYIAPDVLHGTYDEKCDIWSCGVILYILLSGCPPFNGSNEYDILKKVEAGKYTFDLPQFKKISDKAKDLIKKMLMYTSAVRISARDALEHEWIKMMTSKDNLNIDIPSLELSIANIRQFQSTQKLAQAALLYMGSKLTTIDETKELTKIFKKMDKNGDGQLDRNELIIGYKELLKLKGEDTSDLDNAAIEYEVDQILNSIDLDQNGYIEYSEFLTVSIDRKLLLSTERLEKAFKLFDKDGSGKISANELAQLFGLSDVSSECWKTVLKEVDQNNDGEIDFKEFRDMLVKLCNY
# ASSAY_OVERVIEW: PfCDPK4 kinase inhibitors, biochemical, TCAMS library (AID 1159588)
# CONDITION_DESCRIPTION: recombinant PfCDPK4, Kinase-Glo ATP depletion luminescence
Results with a measured potency or affinity are listed apart. Activity calls are given as the source filed them. The limit is not given here; nearly all actives have IC50 up to about 0.91 µM.
ENDPOINT_LABEL: outcome

• Cc1nnc2c(NC(=O)NC3CCCC3)cc3cc(-c4ccc(CN5CCCCC5)cc4)ccc3n12 = inactive
• O=C(CNCC1CCCCC1)Nc1cc(C(F)(F)F)ccc1Cl = inactive
• Cn1cc(CCNc2ccnc(N3CCC(c4ncc[nH]4)CC3)n2)c2ccccc21 = inactive
• Cc1cc(C)c2cc(CNCCCNc3nc4ccccc4[nH]3)[nH]c2c1 = inactive
• COc1ccc2nccc([C@@H](O)CN3CCC(NC(=O)Cn4nc(-c5ccc(C(F)(F)F)cc5)ccc4=O)CC3)c2c1 = inactive
• C=CCOc1ccc(C(=O)Nc2nonc2-c2ccc(OC)c(OC)c2)cc1 = inactive
• Cc1c(CN2CCC(N3CCC(C(=O)NC4CC4)CC3)CC2)[nH]c2c(Cl)cccc12 = inactive
• CCCNC[C@@H](O)[C@H](Cc1ccccc1)NC(=O)c1cc2c3c(c1)c(CC)cn3CCS(=O)(=O)N2C = inactive
• CCC(NC[C@@H](O)[C@H](Cc1ccccc1)NC(=O)c1cc(C2CCCC2)cc(N2CCCC2=O)c1)c1cccc(Cl)c1 (some centres undefined) = inactive

---

# ASSAY_OVERVIEW: HepG2 cytotoxicity, primary screen, cytotoxicity control for P. falciparum antimalarial project, cell-based, ATP luminescence (AID 2303);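 further: 0% = DMSO wells and 100% = digitonin-killed cells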
# CONDITION_DESCRIPTION: HepG2 viability, 24-48 h, at 10 µM, active compounds read high
ENDPOINT_LABEL: inhibition (%)

- O=C(NC1CCC(CCN2CCc3ccc(-c4cnccn4)cc3CC2)CC1)c1cccc(-n2cccn2)c1 (centres undefined): 23
- O=C(Nc1cccc(F)c1)N1CCC(CN2CCOC(c3ccccc3)(c3ccccc3)C2)CC1: 12
- COc1ccc(-n2c(=O)c3c(n4c(SC(C)C)nnc24)-c2ccccc2CC32CCCCC2)cc1: -3
- CC(=O)Nc1ccc(S(=O)(=O)Nc2ccc(Nc3nc(C)cc(N(C)C)n3)cc2)cc1: -2
- Cc1nnsc1C(=O)Nc1ccc(-c2cccc(-c3nc4ccc(F)cc4[nH]3)c2)cc1: 44
- CCN(CC)CCN1C(=O)c2oc3ccc(F)cc3c(=O)c2C1c1cccc(Cl)c1 (centres undefined): -4
- CC1CCN(CCNC(=O)c2ccc3c(=O)n(Cc4ccc(Cl)cc4)c(=S)[nH]c3c2)CC1: 6
- N#Cc1ccc2c(c1)CCN(CCC1CCC(NC(=O)Nc3cnc4ccccc4c3)CC1)C2 (centres undefined): 14
- FC(F)(F)c1cccc(Nc2nc3nonc3nc2NC2C3CC4CC(C3)CC2C4)c1 (centres undefined): 72
- O=C(Nc1ccc(C(F)(F)F)cc1)c1cc(Br)cnc1NCCCn1ccnc1: 32
- O=C(Cc1ccccc1)NC(Nc1ccc([N+](=O)[O-])cc1)C(Cl)(Cl)Cl (centres undefined): 21
- N#CCCn1nc(-c2ccc(Cl)cc2)c2c(c1=O)CCCC2: 0
- NC(N)=Nc1cccc(NC(=O)Nc2cccc(N=C(N)N)c2)c1: -7
- CCC(C)(CC)C(=O)n1ncc2c3c(N)nc(N)nc3ccc21: 73
- COc1ccc(CNCc2ccsc2)cc1-c1ccc(S(=O)(=O)NCCN2CCCC2)c(C)c1: 49
- O=S(=O)(NCCN1CCCC1)c1ccc(-c2cccc(CNCc3ccccc3)c2)s1: 44
- COc1ccc(N2CCN(c3nc(N)c4cc(OC)c(OC)cc4n3)CC2C)cc1 (centres undefined): 8
- C=CC[C@H](NC(=O)c1ccc(NS(=O)(=O)c2ccc3nc(N)[nH]c(=O)c3c2)cc1)C(=O)OCCCC: 61
- CS(=O)(=O)c1ccc(CCNCc2ccc(-c3ccc(CN(C(=O)C4CC(=O)c5ccccc54)C4Cc5ccccc5C4)cc3)nc2)cc1 (centres undefined): 5

---

# TARGET_ENTITY: Calcium-dependent protein kinase 1 (Plasmodium falciparum (isolate 3D7))
# ASSAY_OVERVIEW: PfCDPK1 kinase inhibitors, biochemical, TCAMS library (AID 1159585);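 further: inhibitors leave more ATP so luminescence rises with inhibition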
# CONDITION_DESCRIPTION: recombinant PfCDPK1, Kinase-Glo ATP depletion luminescence
Potency and affinity values are given separately. Calls of active or inactive are those of the source. No cut-off is given here; in the data, nearly all actives have IC50 up to about 0.98 µM.
ENDPOINT_LABEL: outcome

* CCc1nc2ccc(C(=O)OC)nc2n1Cc1ccc2oc(-c3ccccc3N)c(Br)c2c1 | inactive
* O=C(Nc1ccon1)c1cc(-c2cccnc2)nc2ccc(Cl)cc12 | inactive
* Cc1cc(N2CCCN(C)CC2)nc(Nc2ccc(Cl)cc2)n1 | inactive
* COc1cc(NC(=O)CCCCCCCCN2CCN(C)CC2)c2ncccc2c1 | inactive
* CC(C)(C)c1cc(C(=O)Nc2cccnc2)cc(C(=O)Nc2cccnc2)c1 | inactive
* COc1cc(C(=O)N2CCOC(CCN3CCC(Cc4ccc(F)cc4)CC3)(c3ccc(Cl)c(Cl)c3)C2)cc(OC)c1OC (stereo not given) | inactive
* COc1cc2nc(N3CCC(CNCc4ccc(-c5ccc(C(F)(F)F)cc5)cc4)CC3)nc(N)c2cc1OC | inactive
* CN1CCN(Cc2ccc(-c3ccc4c(Nc5ccc(Oc6ccccn6)cc5)ccnc4c3)o2)CC1 | inactive
* COc1ccc(C(=O)NC(c2ccc(Cl)cc2Cl)c2cc(Cl)c3cccnc3c2O)cc1 (stereo not given) | inactive
* CCn1c2c(c(=N)c3ccccc31)CCC2 | inactive
* COc1cc(OC)nc(-c2cccc(NC(=O)c3ccc4c(=O)n(CCN5CCCCC5)cnc4c3)c2)n1 | inactive
* Fc1ccccc1-c1cc(Nc2ccncc2)nc(-c2cccnc2)n1 | inactive
* COc1ccc2nccc([C@@H](O)CN3CCC(NC(=O)COc4nc(SCc5ccc(F)cc5)nc5c4CCC5)CC3)c2c1 | inactive
* CC(C)c1ccc2oc(-c3ccc(NC(=O)c4ccc([N+](=O)[O-])o4)cc3)nc2c1 | inactive
* CCCCCCCc1c(C)[nH]c2cccc(OC)c2c1=O | inactive
* O=C(NCCCCN1CCC(c2nc3ccccc3s2)CC1)c1cc2ccccc2[nH]1 | inactive
* COc1cc(NC(=O)C(c2ccc(Cl)cc2)C(C)C)cc(OC)c1OC (stereo not given) | inactive
* CS(=O)(=O)c1ccc(CCNCc2ccc(-c3ccc(CNC4Cc5ccccc5C4)cc3)nc2)cc1 | inactive
* N#Cc1cccc(C(O)CN(Cc2ccccc2)Cc2ccccc2)c1 (stereo not given) | inactive
* CCOc1c(OC)ccc2c1CCN(CCN1CCC(NC(=O)c3ccc(-c4cccc(C(F)(F)F)c4C(F)(F)F)cc3)CC1)C2 | inactive

---

# TARGET_ENTITY: Plasmodium falciparum protein kinase 6 (PK6, PF3D7_1337100)
# ASSAY_OVERVIEW: PfPK6 kinase inhibitors, biochemical, TCAMS library (AID 1159586)
# CONDITION_DESCRIPTION: recombinant PfPK6, Kinase-Glo ATP depletion luminescence
Potency and affinity values are given separately. Calls of active or inactive are those of the source. No rule for the calls is given here.
ENDPOINT_LABEL: outcome

* Cc1[nH]c(C)c([N+](=O)[O-])c(=O)c1-c1ccc(Oc2ccc(OC(F)(F)F)cc2)cc1 | inactive
* COc1cc(Nc2nccn3c(-c4ccsc4)cnc23)cc(OC)c1OC | inactive
* COc1cc(C=NNc2nc(Nc3ccccc3)nc(Nc3ccccc3)n2)ccc1OCc1ccccc1[N+](=O)[O-] | inactive
* Cc1ccc2nc(-c3ccccc3)cc(NN=Cc3cccnc3)c2c1 | inactive
* CCCCNC(=O)c1[nH]c2c(NC(=O)COc3ccccc3)cccc2c1-c1cccc(NC(=O)C(N)CO)c1 (centres undefined) | inactive
* C=CCc1cc(C2CCN(CCCCNC(=O)c3ccc(-c4ccc(C#N)cc4)cc3)CC2)c(OCC(N)=O)c2c1CCCC2 | inactive
* CN1CCN(CCCN(Cc2ccc(-c3cccc(CNCc4ccc5c(c4)OCO5)c3)cc2)C(=O)NCCc2ccccc2)CC1 | inactive
* CC[C@H](C)CNC(=O)c1ccnc(-c2cccc(CN(C)C3CCN(C)CC3)c2)c1 | inactive
* Cc1cccc2[nH]c(-c3cccc(-c4cccc(NC(=O)Nc5ccsc5)c4)c3)nc12 | inactive
